System: 12 predominant HLA II molecules
Experiment: Binding to the 12 predominant HLA II molecules, summary
Set-up: species or system human
Conditions: number of the 12 predominant HLA II molecules bound (IC50 < 1000 nM)
Residues, ends and D or L forms follow the SMILES beside them.
PROPERTY_MEASURED: No. of molecules fixed

Challenge: # input compound: CC(C)C[C@H](NC(=O)[C@H](Cc1ccccc1)NC(=O)[C@@H]1CCCN1C(=O)[C@H](Cc1c[nH]c2ccccc12)NC(=O)[C@H](CC(N)=O)NC(=O)[C@@H](N)CCCCN)C(=O)N[C@@H](CCC(=O)O)C(=O)NCC(=O)N[C@@H](CS)C(=O)N[C@@H](C)C(=O)N[C@@H](CS)C(=O)N[C@H](C(=O)N1CCC[C@H]1C(=O)N[C@@H](CCC(=O)O)C(=O)N[C@@H](CCCNC(=N)N)C(=O)O)[C@@H](C)O [23-37, K N W P F L E G C A C T P E R] (H-KNWPFLEGCACTPER-OH; N-terminus and C-terminus assumed) ; wanted: its No. of molecules fixed
Response given: 1
